Every entry's value here was drawn from patent US20260274955A1.

- SYSTEM_NAME: T1, anti-CD28 Fab (SEQ ID NOs: 202, 203)
- T1 construct: biotinylated and captured on neutravidin coated plates in the phage ELISA
- PROCEDURE_SUMMARY: phage ELISA on captured Fab;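 further: ELISA with clonal phage supernatants added to wells preincubated with CD28 antigen or with blocking buffer only, bound phage detected by HRP-conjugated anti-M13 antibody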
TEST_READOUT: Anti-CD28 Fab (SEQ ID NOs: 202, 203) signal
Answer with a bare number; do not write a unit.

Sample answers from the record:
binder="YCDGHLLEYKAKCL (on phage, pIII fusion) [Phage-503]" reported_measurement=1.62
binder="YCDGHRVEYMAKCL (on phage, pIII fusion) [Phage-522]" reported_measurement=1.58
binder="YCDGHELQYMAKCL (on phage, pIII fusion) [Phage-515]" reported_measurement=1.6
binder="YCEGHLDQYMTKCL (on phage, pIII fusion) [Phage-578]" reported_measurement=1.47
binder="YCQGHIEPYLAKCL (on phage, pIII fusion) [Phage-586]" reported_measurement=1.46

Need Anti-CD28 Fab (SEQ ID NOs: 202, 203) signal, item YCEGHSLMYMWKCL (on phage, pIII fusion) [Phage-474]
1.65

Need Anti-CD28 Fab (SEQ ID NOs: 202, 203) signal, item YCEGHSAQYMHKCL (on phage, pIII fusion) [Phage-481]
1.64

Need Anti-CD28 Fab (SEQ ID NOs: 202, 203) signal, item YCSGHLPQYLEKCL (on phage, pIII fusion) [Phage-567]
1.5
